Values compiled from the supplement of paper PMC10567573.

B1: C22orf15 (parent)
chain: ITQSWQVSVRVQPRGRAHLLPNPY

Variants of: B1
EXPERIMENT SUMMARY: protein stability index of a GFP-peptide fusion (GPS, HEK-293T) (PSI 1-6); higher = more stable;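 note: lentivirally expressed fusions sorted by FACS into six bins by GFP to DsRed ratio, PSI derived from sequencing read proportions per bin multiplied by bin number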
CONDITION PARAMETERS: c terminus: a fixed tail appended
OUTCOME MEASURE: protein stability index

INSERT INTO measurements (variant_label, number) VALUES
  ('Q3S', 3.25),
  ('I1F', 2.74),
  ('H18S', 1.43),
  ('V11K', 3.28),
  ('L19C', 2.07),
  ('L20N', 2.16),
  ('Q3W', 1.68),
  ('Y24S', 1.34),
  ('V9E', 2.26),
  ('P23K', 2.09),
  ('P23L', 1.46),
  ('R14E', 2.73),
  ('I1S', 1.78),
  ('H18Y', 1.95),
  ('P13I', 2.67),
  ('G15V', 2.31),
  ('G15Y', 1.77),
  ('P23D', 1.42),
  ('P21Y', 2.38),
  ('R14A', 3.37),
  ('G15E', 2.02),
  ('G15N', 3.33),
  ('N22Q', 2.43),
  ('W5Q', 1.81),
  ('V11H', 2.49),
  ('R10G', 2.89),
  ('T2G', 1.77),
  ('A17V', 2.58),
  ('A17Y', 3.21),
  ('N22A', 2.85),
  ('T2C', 3.3),
  ('L19G', 2.23),
  ('A17K', 1.34),
  ('W5N', 2.86),
  ('V7K', 1.81),
  ('I1M', 1.26),
  ('R10K', 2.41),
  ('R16Q', 1);
